Listed here are compounds together with their documented IC50.
- Study target: Tyrosine-protein phosphatase non-receptor type 1 (Homo sapiens, UniProt P18031)
- Sequence (P18031 whole entry): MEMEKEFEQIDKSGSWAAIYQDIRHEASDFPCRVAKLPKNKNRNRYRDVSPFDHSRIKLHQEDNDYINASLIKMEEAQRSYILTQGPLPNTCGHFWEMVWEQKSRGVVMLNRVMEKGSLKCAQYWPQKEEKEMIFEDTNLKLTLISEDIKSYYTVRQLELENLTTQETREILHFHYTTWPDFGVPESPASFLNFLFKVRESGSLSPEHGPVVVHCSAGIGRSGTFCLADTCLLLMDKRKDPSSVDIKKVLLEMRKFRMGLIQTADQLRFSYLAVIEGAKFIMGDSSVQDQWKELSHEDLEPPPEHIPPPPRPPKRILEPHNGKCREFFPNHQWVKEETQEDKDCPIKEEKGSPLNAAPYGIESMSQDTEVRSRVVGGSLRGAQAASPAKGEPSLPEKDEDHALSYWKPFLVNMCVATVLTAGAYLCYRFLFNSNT
- Measurement description: Inhibition of recombinant human PTP1B assessed as hydrolysis of p-nitrophenyl phosphate
Observed property: IC50 (nM)

INSERT INTO measurements (query_smiles, observed_property, display_unit, observed_value) VALUES
  ('CC(C)=CCc1c(O)ccc(-c2coc3cc(O)c(CC=C(C)C)c(O)c3c2=O)c1O', 'IC50', 'nM', 400),
  ('CC(C)=CCc1cc(-c2coc3cc(O)c(CC=C(C)C)c(O)c3c2=O)cc(O)c1O', 'IC50', 'nM', 3000);
